METHOD SUMMARY: Cytotoxicity against HSF cells assessed as cell viability at 100 uM after 24 hrs by MTT assay relative to control
Assay type: cell-based
CONDITION: human, read-out: Activity
Listing: viability at 24 h, 100 µM of selected molecules
Your answer is read as %, so omit the unit and give the number.

# example entries with known answers
| COMPOUND STRUCTURE STRING | viability at 24 h, 100 µM [%] |
| --- | --- |
| NNC(=O)c1nnc2n(c1=O)CCN2c1cccc(Cl)c1 | 105 |
| CCOC(=O)c1nnc2n(c1=O)CCN2c1ccc(C)cc1 | 82 |
| Cc1ccc(N2CCn3c2nnc(C(=O)NN)c3=O)cc1 | 95 |
| CCOC(=O)c1nnc2n(c1=O)CCN2c1ccccc1 | 77.1 |
| CCOC(=O)c1nnc2n(c1=O)CCN2c1cccc(Cl)c1 | 98 |
| CCOC(=O)c1nnc2n(c1=O)CCN2c1ccc(Cl)c(Cl)c1 | 85 |

Q: Indicate the recorded viability at 24 h, 100 µM value for this molecule: NNC(=O)c1nnc2n(c1=O)CCN2c1ccccc1
Ans: 82

Q: Provide viability at 24 h, 100 µM value for the following molecule: COc1ccc(N2CCn3c2nnc(C(=O)NN)c3=O)cc1
Ans: 100

Q: Answer with the recorded viability at 24 h, 100 µM of CCOC(=O)c1nnc2n(c1=O)CCN2c1ccc(OC)cc1 only.
Ans: 97
